This collection of values is drawn from patent US9718825B2.

# tested.on: recombinant human SGK-1 enzyme (Homo sapiens)
# Sequence (O00141 whole entry, looked up): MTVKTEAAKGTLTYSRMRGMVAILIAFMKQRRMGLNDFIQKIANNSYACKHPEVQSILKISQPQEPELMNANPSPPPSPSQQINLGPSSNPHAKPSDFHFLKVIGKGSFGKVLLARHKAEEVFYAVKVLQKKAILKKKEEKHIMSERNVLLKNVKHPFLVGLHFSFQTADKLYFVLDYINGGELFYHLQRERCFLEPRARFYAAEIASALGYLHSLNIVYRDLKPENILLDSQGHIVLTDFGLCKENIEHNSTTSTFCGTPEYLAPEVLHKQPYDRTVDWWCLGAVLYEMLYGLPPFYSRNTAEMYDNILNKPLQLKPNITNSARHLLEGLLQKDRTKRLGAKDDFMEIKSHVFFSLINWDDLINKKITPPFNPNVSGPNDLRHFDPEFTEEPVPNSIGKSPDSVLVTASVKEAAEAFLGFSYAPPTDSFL
# run.description: Enzymatic activity assay: SGK-1 substrate peptide phosphorylation (Caliper lab-chip mobility shift)
# Assay type: biochemical
# experimental.context: peptide substrate 1 μM, ATP 10 μM, 60 min at 37° C., read-out: IC50 values for inhibition of SGK-1 enzymatic activity

compound: Cc1ccc(F)c(S(=O)(=O)Nc2ccc(-c3nc(OC4CCC(O)CC4)c4c(C)n[nH]c4n3)cc2)c1 (stereo not shown)
unit.of.measurement: nM
IC50: 2.1

compound: Cc1n[nH]c2nc(-c3ccc(NS(=O)(=O)c4cc(Cl)ccc4C#N)cc3)nc(OC3CCNCC3F)c12 (stereo not shown)
unit.of.measurement: nM
IC50: 3.3

compound: Cc1ccc(C#N)c(S(=O)(=O)Nc2ccc(-c3ncc4c(N)n[nH]c4n3)cc2)c1
unit.of.measurement: nM
IC50: 1.6

compound: Nc1n[nH]c2nc(-c3ccc(NS(=O)(=O)c4cc(Cl)sc4Cl)cc3)ncc12
unit.of.measurement: nM
IC50: 2.5

---

# tested.on: recombinant human SGK-1 enzyme (Homo sapiens)
# run.description: Enzymatic activity assay: SGK-1 substrate peptide phosphorylation (Caliper lab-chip mobility shift)
# Type: biochemical
# experimental.context: peptide substrate 1 μM, ATP 10 μM, 60 min at 37° C., read-out: IC50 values for inhibition of SGK-1 enzymatic activity
pIC50: −log10 of the molar value.
Rule: criterion met for pIC50 not less than 8, criterion not met for anything less.

compound: O=S(=O)(Nc1ccc(-c2nc(N3CCC(O)CC3)c3cn[nH]c3n2)cc1)c1cc(Cl)ccc1Cl
tested.on: recombinant human SGK-1 enzyme (Homo sapiens)
class: criterion met

compound: Nc1n[nH]c2nc(-c3ccc(NS(=O)(=O)c4cc(Cl)sc4Cl)cc3)nc(C3CC3)c12
tested.on: recombinant human SGK-1 enzyme (Homo sapiens)
class: criterion met

compound: Cc1n[nH]c2nc(-c3ccc(NS(=O)(=O)c4cc(F)ccc4F)cc3)nc(OC3CCN(CCF)CC3)c12
tested.on: recombinant human SGK-1 enzyme (Homo sapiens)
class: criterion met

compound: COc1ccc(C#N)c(S(=O)(=O)Nc2ccc(-c3nc(OCC(C)C)c4c(N)n[nH]c4n3)cc2)c1
tested.on: recombinant human SGK-1 enzyme (Homo sapiens)
class: criterion met

compound: COc1ccc(Oc2nc(-c3ccc(NS(=O)(=O)c4cc(Cl)ccc4F)cc3)cc3[nH]nc(C)c23)cn1
tested.on: recombinant human SGK-1 enzyme (Homo sapiens)
class: criterion not met

compound: Cc1nc(-c2ccc(NS(=O)(=O)c3cc4c(cc3Br)OCCCO4)cc2)nc2[nH]nc(N)c12
tested.on: recombinant human SGK-1 enzyme (Homo sapiens)
class: criterion met

compound: Cc1n[nH]c2nc(-c3ccc(NS(=O)(=O)c4cc(Cl)ccc4Cl)cc3)nc(OCC3CNCCO3)c12 (stereo not drawn)
tested.on: recombinant human SGK-1 enzyme (Homo sapiens)
class: criterion met

compound: Cc1n[nH]c2nc(-c3ccc(NS(=O)(=O)c4cc(Cl)ccc4Cl)cc3)nc(OCCCO)c12
tested.on: recombinant human SGK-1 enzyme (Homo sapiens)
class: criterion met

compound: NCCCOc1nc(-c2ccc(NS(=O)(=O)c3cccc(Cl)c3Cl)cc2)nc2[nH]ncc12
tested.on: recombinant human SGK-1 enzyme (Homo sapiens)
class: criterion met

compound: COCCc1nc(-c2ccc(NS(=O)(=O)c3cc(Cl)c(F)cc3F)cc2)nc2[nH]nc(N)c12
tested.on: recombinant human SGK-1 enzyme (Homo sapiens)
class: criterion not met

compound: O=S(=O)(Nc1ccc(-c2nc(OC3CNC3)c3cn[nH]c3n2)cc1F)c1cc(Cl)ccc1F
tested.on: recombinant human SGK-1 enzyme (Homo sapiens)
class: criterion not met

compound: COc1nc(-c2ccc(NS(=O)(=O)c3cc(Cl)cc(F)c3F)cc2)nc2[nH]ncc12
tested.on: recombinant human SGK-1 enzyme (Homo sapiens)
class: criterion not met
